System: SW1463 (Colorectal Carcinoma)
Assay: combination Emax (second highest fraction inhibited in the dose matrix, 72 h); higher = more inhibition; extreme values may be limits of the assay
Could you please report measured combination Emax for the items listed next?
Write the value as a bare number.

Given Cc1c2c(nn1C)CSCc1cc(n(C)n1)CSc1cc(c3ccccc3c1)OCCCc1c(C(=O)O)n(C)c3c-2c(Cl)ccc13 [AZD5991] + Nc1ccn([C@@H]2O[C@H](CO)[C@@H](O)C2(F)F)c(=O)n1 [Gemcitabine] (first compound max 1 µM, 7x7, partner max 0.3 µM) , state its recorded combination Emax.
0.516

Same thing, different molecule: Cc1c2c(nn1C)CSCc1cc(n(C)n1)CSc1cc(c3ccccc3c1)OCCCc1c(C(=O)O)n(C)c3c-2c(Cl)ccc13 [AZD5991] + C[C@@H]1COCCN1C2=NC(=NC(=C2)C3(CC3)[S@](=N)(=O)C)C4=C5C=CNC5=NC=C4 [AZD6738] (first compound max 1 µM, 7x7, partner max 10 µM)
0.506

Same read-out for C=CCn1c(=O)c2cnc(Nc3ccc(N4CCN(C)CC4)cc3)nc2n1-c1cccc(C(C)(C)O)n1 [AZD1775] + Nc1ccn([C@@H]2O[C@H](CO)[C@@H](O)C2(F)F)c(=O)n1 [Gemcitabine] (first compound max 1 µM, partner max 0.3 µM) ?
0.763

Do the same for COc1nnc2ccc(N3CCC(c4ccc(OCCN5CCN(C)C(=O)[C@H]5C)cc4)CC3)nn12 [AZD5153] + CCN(CCO)CCCOc1ccc2c(Nc3cc(CC(=O)Nc4cccc(F)c4)[nH]n3)ncnc2c1 [AZD2811] (first compound max 1 µM, 7x7, partner max 1 µM) please
0.563

Now consider CC1(C)CCC(CN2CCN(c3ccc(C(=O)NS(=O)(=O)c4ccc(NCC5CCOCC5)c([N+](=O)[O-])c4)c(Oc4cnc5[nH]ccc5c4)c3)CC2)=C(c2ccc(Cl)cc2)C1 [Venetoclax] + C=CCn1c(=O)c2cnc(Nc3ccc(N4CCN(C)CC4)cc3)nc2n1-c1cccc(C(C)(C)O)n1 [AZD1775] (first compound max 1 µM, partner max 1 µM) and answer again.
0.36

Now give it for Cc1nc(-c2cn3c(n2)-c2ccc(-c4cnn(C(C)(C)C(N)=O)c4)cc2OCC3)n(C(C)C)n1 [Taselisib] + O=C(Nc1ccc2[nH]nc(-c3ccncc3)c2c1)[C@@H]1CCN(CC(=O)N2CCN(c3ccc(-c4ncccn4)cc3)CC2)C1 [SCH772984] (first compound max 10 µM, 7x7, partner max 5 µM) too.
0.798

What about this molecule? Cc1c2c(nn1C)CSCc1cc(n(C)n1)CSc1cc(c3ccccc3c1)OCCCc1c(C(=O)O)n(C)c3c-2c(Cl)ccc13 [AZD5991] + C[C@@H](Nc1cc(F)cc(F)c1)c1cc(C(=O)N(C)C)cc2c(=O)cc(N3CCOCC3)oc12 [AZD8186] (first compound max 1 µM, 7x7, partner max 3 µM)
0.188

====

System: GCIY (Gastric Carcinoma)
Test: Bliss excess, mean over the matrix (fraction); higher = more synergy
outcome_measure: Bliss excess
Output spec: single numeric token, no unit.

Return reported Bliss excess; argument: CN(CCO)CC[C@H](CSc1ccccc1)Nc1ccc(S(=O)(=O)NC(=O)c2ccc(N3CCC([C@@H](O)c4ccccc4-c4ccc(Cl)cc4)CC3)cc2)cc1S(=O)(=O)C(F)(F)F [AZD4320] + CN(C)CCCOc1ccc(-c2ccc3ncc4c(c3c2)n(C2CCOCC2)c(=O)n4C)cn1 [AZD0156] (first compound max 1 µM, 7x7, partner max 1 µM)
0.0237

Please give the result for Cc1nc(Nc2ncc(C(=O)Nc3c(C)cccc3Cl)s2)cc(N2CCN(CCO)CC2)n1 [Dasatinib] + CC(=O)Nc1cccc(-n2c(=O)n(C3CC3)c(=O)c3c(Nc4ccc(I)cc4F)n(C)c(=O)c(C)c32)c1 [Trametinib] (first compound max 2 µM, 7x7, partner max 1 µM) too.
0.052

Queued: Cc1c2c(nn1C)CSCc1cc(n(C)n1)CSc1cc(c3ccccc3c1)OCCCc1c(C(=O)O)n(C)c3c-2c(Cl)ccc13 [AZD5991] + Cc1cc2ncnn2cc1Nc1ncc2c(n1)n(C1CCOCC1)c(=O)n2C [AZD7648] (first compound max 1 µM, 7x7, partner max 10 µM)
-0.0242

Check Cc1c2c(nn1C)CSCc1cc(n(C)n1)CSc1cc(c3ccccc3c1)OCCCc1c(C(=O)O)n(C)c3c-2c(Cl)ccc13 [AZD5991] + CC(=O)O[C@H]1C(=O)[C@@]2(C)[C@H]([C@H](OC(=O)c3ccccc3)[C@]3(O)C[C@H](OC(=O)[C@H](O)[C@@H](NC(=O)c4ccccc4)c4ccccc4)C(C)=C1C3(C)C)[C@]1(OC(C)=O)CO[C@@H]1C[C@@H]2O [Paclitaxel] (first compound max 1 µM, 7x7, partner max 3 µM) too.
-0.0262

Try the molecule Cc1c2c(nn1C)CSCc1cc(n(C)n1)CSc1cc(c3ccccc3c1)OCCCc1c(C(=O)O)n(C)c3c-2c(Cl)ccc13 [AZD5991] + CS(=O)(=O)CCNCc1ccc(-c2ccc3ncnc(Nc4ccc(OCc5cccc(F)c5)c(Cl)c4)c3c2)o1 [Lapatinib] (first compound max 1 µM, 7x7, partner max 10 µM)
0.013

Next molecule up: Cc1c2c(nn1C)CSCc1cc(n(C)n1)CSc1cc(c3ccccc3c1)OCCCc1c(C(=O)O)n(C)c3c-2c(Cl)ccc13 [AZD5991] + Cn1cnc2c(F)c(Nc3ccc(Br)cc3Cl)c(C(=O)NOCCO)cc21 [Selumetinib] (first compound max 1 µM, 7x7, partner max 3 µM)
-0.0633

Then O=C(c1cc(Cc2n[nH]c(=O)c3ccccc23)ccc1F)N1CCN(C(=O)C2CC2)CC1 [Olaparib] + CN(CC[C@H](CSC1=CC=CC=C1)NC2=C(C=C(C=C2)S(=O)(=O)NC(=O)C3=CC=C(C=C3)N4CCC(CC4)[C@H](C5=CC=CC=C5C6=CC=C(C=C6)Cl)O)S(=O)(=O)C(F)(F)F)CCO [AZD4320] (first compound max 10 µM, 7x7, partner max 1 µM) ?
0.0025

====

Tested on: RPMI-8402 (T-Lymphoblastic Leukemia)
Assay: Bliss excess, mean over the matrix (fraction); higher = more synergy
outcome_measure: Bliss excess

Could you tell me which Bliss excess is on file for C=CCn1c(=O)c2cnc(Nc3ccc(N4CCN(C)CC4)cc3)nc2n1-c1cccc(C(C)(C)O)n1 [AZD1775] + C[C@@H]1COCCN1C2=NC(=NC(=C2)C3(CC3)[S@](=N)(=O)C)C4=C5C=CNC5=NC=C4 [AZD6738] (first compound max 1 µM, partner max 10 µM) ?
0.0379

Record: O=C(c1cc(Cc2n[nH]c(=O)c3ccccc23)ccc1F)N1CCN(C(=O)C2CC2)CC1 [Olaparib] + COc1nnc2ccc(N3CCC(c4ccc(OCCN5CCN(C)C(=O)[C@H]5C)cc4)CC3)nn12 [AZD5153] (first compound max 10 µM, 7x7, partner max 1 µM)
-0.0277

And for CN(CCO)CC[C@H](CSc1ccccc1)Nc1ccc(S(=O)(=O)NC(=O)c2ccc(N3CCC([C@@H](O)c4ccccc4-c4ccc(Cl)cc4)CC3)cc2)cc1S(=O)(=O)C(F)(F)F [AZD4320] + Cn1cnc2c(F)c(Nc3ccc(Br)cc3Cl)c(C(=O)NOCCO)cc21 [Selumetinib] (first compound max 1 µM, 7x7, partner max 3 µM) ?
-0.0351

====

Field: Bliss excess. Provide a value for each of the molecules that follow.
System: GCIY (Gastric Carcinoma)
Assay: Bliss excess, mean over the matrix (fraction); higher = more synergy
Give the figure only, with no unit attached.

Value lookup for Bliss excess; key = CN(CCO)CC[C@H](CSc1ccccc1)Nc1ccc(S(=O)(=O)NC(=O)c2ccc(N3CCC([C@@H](O)c4ccccc4-c4ccc(Cl)cc4)CC3)cc2)cc1S(=O)(=O)C(F)(F)F [AZD4320] + CC(=O)O[C@H]1C(=O)[C@@]2(C)[C@H]([C@H](OC(=O)c3ccccc3)[C@]3(O)C[C@H](OC(=O)[C@H](O)[C@@H](NC(=O)c4ccccc4)c4ccccc4)C(C)=C1C3(C)C)[C@]1(OC(C)=O)CO[C@@H]1C[C@@H]2O [Paclitaxel] (first compound max 1 µM, 7x7, partner max 3 µM)
0.131

Record: CC(=O)c1c(C)c2cnc(Nc3ccc(N4CCNCC4)cn3)nc2n(C2CCCC2)c1=O [Palbociclib] + Cn1cnc2c(F)c(Nc3ccc(Br)cc3Cl)c(C(=O)NOCCO)cc21 [Selumetinib] (first compound max 10 µM, 7x7, partner max 10 µM)
0.0351

Follow-up item: CC(=O)c1c(C)c2cnc(Nc3ccc(N4CCNCC4)cn3)nc2n(C2CCCC2)c1=O [Palbociclib] + CC1(C)CCC(CN2CCN(c3ccc(C(=O)NS(=O)(=O)c4ccc(NCC5CCOCC5)c([N+](=O)[O-])c4)c(Oc4cnc5[nH]ccc5c4)c3)CC2)=C(c2ccc(Cl)cc2)C1 [Venetoclax] (first compound max 10 µM, 7x7, partner max 1 µM)
-0.0391

Further, for COc1nnc2ccc(N3CCC(c4ccc(OCCN5CCN(C)C(=O)[C@H]5C)cc4)CC3)nn12 [AZD5153] + CCN(CCO)CCCOc1ccc2c(Nc3cc(CC(=O)Nc4cccc(F)c4)[nH]n3)ncnc2c1 [AZD2811] (first compound max 1 µM, 7x7, partner max 1 µM) ?
-0.0388

Check CC1(C)CCC(CN2CCN(c3ccc(C(=O)NS(=O)(=O)c4ccc(NCC5CCOCC5)c([N+](=O)[O-])c4)c(Oc4cnc5[nH]ccc5c4)c3)CC2)=C(c2ccc(Cl)cc2)C1 [Venetoclax] + C[C@@H]1COCCN1C2=NC(=NC(=C2)C3(CC3)[S@](=N)(=O)C)C4=C5C=CNC5=NC=C4 [AZD6738] (first compound max 1 µM, 7x7, partner max 10 µM) too.
-0.0468

What do we get for COc1cccc(OCCCN)c1-c1cc(Nc2cnc(C#N)cn2)n[nH]1 [Prexasertib] + O=C(c1cc(Cc2n[nH]c(=O)c3ccccc23)ccc1F)N1CCN(C(=O)C2CC2)CC1 [Olaparib] (first compound max 1 µM, 7x7, partner max 10 µM) ?
-0.0476

Cool, now NC1(C(=O)N[C@@H](CCO)c2ccc(Cl)cc2)CCN(c2ncnc3[nH]ccc23)CC1 [Capivasertib] + Cn1cnc2c(F)c(Nc3ccc(Br)cc3Cl)c(C(=O)NOCCO)cc21 [Selumetinib] (first compound max 10 µM, 7x7, partner max 10 µM)
-0.0245
